meta.source: patent US20220064327A1

Measured Kd, listed per entry for reference.
assay-target: T1, human factor IX (human, UniProt P00740 47-461, 12 glutamic acid residues of the GLA domain are post-translationally γ-carboxylated)
T1 construct: Zymogen used as analyte in SPR, reconstituted at 1 mg/ml; also called FIX; Human FIX (MW ~55 KDa)
T1 sequence (P00740 47-461 limits assumed): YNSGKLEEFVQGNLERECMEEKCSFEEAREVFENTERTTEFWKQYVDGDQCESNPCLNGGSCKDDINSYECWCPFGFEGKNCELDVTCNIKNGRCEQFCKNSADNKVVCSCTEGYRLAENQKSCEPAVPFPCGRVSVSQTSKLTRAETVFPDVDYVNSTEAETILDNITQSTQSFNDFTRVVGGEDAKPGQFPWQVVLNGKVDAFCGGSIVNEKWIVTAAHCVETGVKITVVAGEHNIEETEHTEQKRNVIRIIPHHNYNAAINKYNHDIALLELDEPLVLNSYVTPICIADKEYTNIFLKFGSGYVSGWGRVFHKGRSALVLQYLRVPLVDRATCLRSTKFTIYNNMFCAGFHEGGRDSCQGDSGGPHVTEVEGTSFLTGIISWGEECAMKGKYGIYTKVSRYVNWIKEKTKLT
assay-remarks: SPR, IgG captured on anti-human IgG Fc, human FIX as analyte
Could you give me the number in nM? Just the number is fine.

[[record]]
binder = "NINA-0460.0128 (antibody, V domains shown) VH: EVQLVESGGGFVQPGGSLRLSCAVSGFTFNSYWMSWVRQAPGKGLEWVANINQDGSEKFYVASVKGRFTMSRDNAKKSVYVQMNSLRAEDTAVYYCAREGYSSSQYYGMDVWGQGTTVTVSS VL: SYVLTQPPSVSVAPGETARITCGGDNIGRKSVYWYQQKSGQAPVLVIYYDSDRPSGIPERFSGSNSGNTATLTISRVEAGDEADYYCQVWDGSSDHWVFGGGTKLTVL"
observed_property = "Kd"
measurement = 181


Here is the next item to consider.
Bench note: what Kd did NINA-0436.0128 (antibody, V domains shown) VH: EVQLVESGGGFVQPGGSLRLSCAVSGFTFNSYWMSWVRQAPGKGLEWVANINQDGSEKFYVASVKGRFTMSRDNAKKSVYVQMNSLRAEDTAVYYCAREGYSSISYYGMDVWGQGTTVTVSS VL: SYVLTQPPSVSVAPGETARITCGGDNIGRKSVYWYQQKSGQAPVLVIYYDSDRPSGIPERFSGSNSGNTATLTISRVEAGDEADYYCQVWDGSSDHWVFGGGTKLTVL show?
184
